Assay: clinical
Design: species or system human
Details: human, in vivo, iv, 25 mg, AUC0–8
Positions of bridges follow the written chain, without caps; N, C: chain ends. Non-standard residues stand in square brackets, D forms with d. Residues, ends and D or L forms follow the SMILES beside them. *: point of attachment. X1 = NC[C@@H](CC(=O)*)c1cccc(Cl)c1; Dab = NCC[C@H](N)C(=O)O; Dap = NC[C@H](N)C(=O)O
quantity.name: AUC(0-t)
A complete answer gives the number followed by the unit.

Inquiry: Look at this compound and give its reported AUC(0-t). CC(C)C[C@@H]1NC(=O)[C@@H](Cc2ccccc2)NC(=O)[C@H](CCN)NC(=O)[C@@H](NC(=O)[C@H](CN)NC(=O)[C@@H](NC(=O)C[C@H](CN)c2cccc(Cl)c2)[C@@H](C)O)CCNC(=O)[C@H]([C@@H](C)O)NC(=O)[C@H](CCN)NC(=O)[C@H](CCN)NC1=O [SPR206] (X1-T[Dap][Dab][Dab][dF]L[Dab][Dab]T; lactam 3-C (inferred))
Reply text: 3810 ng·h/mL

###

Assay: clinical
Parameters: species or system human
Conditions: human, in vivo, 25 mg, AUC0–inf
Positions of bridges follow the written chain, without caps; N, C: chain ends. Non-standard residues stand in square brackets, D forms with d. Residues, ends and D or L forms follow the SMILES beside them. *: point of attachment. X1 = NC[C@@H](CC(=O)*)c1cccc(Cl)c1; Dab = NCC[C@H](N)C(=O)O; Dap = NC[C@H](N)C(=O)O
quantity.name: AUC(0-inf) (ng·h/mL)
Use ng·h/mL as the unit, but write only the number.

Inquiry: Look at this compound and give its reported AUC(0-inf). CC(C)C[C@@H]1NC(=O)[C@@H](Cc2ccccc2)NC(=O)[C@H](CCN)NC(=O)[C@@H](NC(=O)[C@H](CN)NC(=O)[C@@H](NC(=O)C[C@H](CN)c2cccc(Cl)c2)[C@@H](C)O)CCNC(=O)[C@H]([C@@H](C)O)NC(=O)[C@H](CCN)NC(=O)[C@H](CCN)NC1=O [SPR206] (X1-T[Dap][Dab][Dab][dF]L[Dab][Dab]T; lactam 3-C (inferred))
Reply text: 7690

###

Experiment: clinical
Set-up: species or system human
Conditions: human, in vivo, iv, 50 mg, Cmax
Positions of bridges follow the written chain, without caps; N, C: chain ends. Non-standard residues stand in square brackets, D forms with d. Residues, ends and D or L forms follow the SMILES beside them. *: point of attachment. X1 = NC[C@@H](CC(=O)*)c1cccc(Cl)c1; Dab = NCC[C@H](N)C(=O)O; Dap = NC[C@H](N)C(=O)O
quantity.name: Cmax (ng/mL)
Use ng/mL as the unit, but write only the number.

Inquiry: Look at this compound and give its reported Cmax. CC(C)C[C@@H]1NC(=O)[C@@H](Cc2ccccc2)NC(=O)[C@H](CCN)NC(=O)[C@@H](NC(=O)[C@H](CN)NC(=O)[C@@H](NC(=O)C[C@H](CN)c2cccc(Cl)c2)[C@@H](C)O)CCNC(=O)[C@H]([C@@H](C)O)NC(=O)[C@H](CCN)NC(=O)[C@H](CCN)NC1=O [SPR206] (X1-T[Dap][Dab][Dab][dF]L[Dab][Dab]T; lactam 3-C (inferred))
Reply text: 3420

###

Assay: clinical
Parameters: species or system human
Conditions: human, in vivo, iv, 200 mg
Positions of bridges follow the written chain, without caps; N, C: chain ends. Non-standard residues stand in square brackets, D forms with d. Residues, ends and D or L forms follow the SMILES beside them. *: point of attachment. X1 = NC[C@@H](CC(=O)*)c1cccc(Cl)c1; Dab = NCC[C@H](N)C(=O)O; Dap = NC[C@H](N)C(=O)O
quantity.name: Tmax (h)
Use h as the unit, but write only the number.

Inquiry: Look at this compound and give its reported Tmax. CC(C)C[C@@H]1NC(=O)[C@@H](Cc2ccccc2)NC(=O)[C@H](CCN)NC(=O)[C@@H](NC(=O)[C@H](CN)NC(=O)[C@@H](NC(=O)C[C@H](CN)c2cccc(Cl)c2)[C@@H](C)O)CCNC(=O)[C@H]([C@@H](C)O)NC(=O)[C@H](CCN)NC(=O)[C@H](CCN)NC1=O [SPR206] (X1-T[Dap][Dab][Dab][dF]L[Dab][Dab]T; lactam 3-C (inferred))
Reply text: 1.1

###

Test: clinical
Conditions: human, in vivo, 100 mg, CLR (renal clearance)
Positions of bridges follow the written chain, without caps; N, C: chain ends. Non-standard residues stand in square brackets, D forms with d. Residues, ends and D or L forms follow the SMILES beside them. *: point of attachment. X1 = NC[C@@H](CC(=O)*)c1cccc(Cl)c1; Dab = NCC[C@H](N)C(=O)O; Dap = NC[C@H](N)C(=O)O
quantity.name: CL renal (mL/min)
Use mL/min as the unit, but write only the number.

Inquiry: Look at this compound and give its reported CL renal. CC(C)C[C@@H]1NC(=O)[C@@H](Cc2ccccc2)NC(=O)[C@H](CCN)NC(=O)[C@@H](NC(=O)[C@H](CN)NC(=O)[C@@H](NC(=O)C[C@H](CN)c2cccc(Cl)c2)[C@@H](C)O)CCNC(=O)[C@H]([C@@H](C)O)NC(=O)[C@H](CCN)NC(=O)[C@H](CCN)NC1=O [SPR206] (X1-T[Dap][Dab][Dab][dF]L[Dab][Dab]T; lactam 3-C (inferred))
Reply text: 25.8

###

Test: clinical
Design: species or system human
Details: human, in vivo, 100 mg, AUC0–8
Positions of bridges follow the written chain, without caps; N, C: chain ends. Non-standard residues stand in square brackets, D forms with d. Residues, ends and D or L forms follow the SMILES beside them. *: point of attachment. X1 = NC[C@@H](CC(=O)*)c1cccc(Cl)c1; Dab = NCC[C@H](N)C(=O)O; Dap = NC[C@H](N)C(=O)O
quantity.name: AUC(0-t) (ng·h/mL)
Use ng·h/mL as the unit, but write only the number.

Inquiry: Look at this compound and give its reported AUC(0-t). CC(C)C[C@@H]1NC(=O)[C@@H](Cc2ccccc2)NC(=O)[C@H](CCN)NC(=O)[C@@H](NC(=O)[C@H](CN)NC(=O)[C@@H](NC(=O)C[C@H](CN)c2cccc(Cl)c2)[C@@H](C)O)CCNC(=O)[C@H]([C@@H](C)O)NC(=O)[C@H](CCN)NC(=O)[C@H](CCN)NC1=O [SPR206] (X1-T[Dap][Dab][Dab][dF]L[Dab][Dab]T; lactam 3-C (inferred))
Reply text: 21300

###

Test: clinical
Set-up: species or system human
Settings: human, in vivo, 150 mg, Cmax
Positions of bridges follow the written chain, without caps; N, C: chain ends. Non-standard residues stand in square brackets, D forms with d. Residues, ends and D or L forms follow the SMILES beside them. *: point of attachment. X1 = NC[C@@H](CC(=O)*)c1cccc(Cl)c1; Dab = NCC[C@H](N)C(=O)O; Dap = NC[C@H](N)C(=O)O
quantity.name: Cmax (ng/mL)
Use ng/mL as the unit, but write only the number.

Inquiry: Look at this compound and give its reported Cmax. CC(C)C[C@@H]1NC(=O)[C@@H](Cc2ccccc2)NC(=O)[C@H](CCN)NC(=O)[C@@H](NC(=O)[C@H](CN)NC(=O)[C@@H](NC(=O)C[C@H](CN)c2cccc(Cl)c2)[C@@H](C)O)CCNC(=O)[C@H]([C@@H](C)O)NC(=O)[C@H](CCN)NC(=O)[C@H](CCN)NC1=O [SPR206] (X1-T[Dap][Dab][Dab][dF]L[Dab][Dab]T; lactam 3-C (inferred))
Reply text: 11500

###

Experiment: clinical
Set-up: species or system human
Conditions: human, in vivo, iv, 25 mg, AUC0–inf
Positions of bridges follow the written chain, without caps; N, C: chain ends. Non-standard residues stand in square brackets, D forms with d. Residues, ends and D or L forms follow the SMILES beside them. *: point of attachment. X1 = NC[C@@H](CC(=O)*)c1cccc(Cl)c1; Dab = NCC[C@H](N)C(=O)O; Dap = NC[C@H](N)C(=O)O
quantity.name: AUC(0-inf) (ng·h/mL)
Use ng·h/mL as the unit, but write only the number.

Inquiry: Look at this compound and give its reported AUC(0-inf). CC(C)C[C@@H]1NC(=O)[C@@H](Cc2ccccc2)NC(=O)[C@H](CCN)NC(=O)[C@@H](NC(=O)[C@H](CN)NC(=O)[C@@H](NC(=O)C[C@H](CN)c2cccc(Cl)c2)[C@@H](C)O)CCNC(=O)[C@H]([C@@H](C)O)NC(=O)[C@H](CCN)NC(=O)[C@H](CCN)NC1=O [SPR206] (X1-T[Dap][Dab][Dab][dF]L[Dab][Dab]T; lactam 3-C (inferred))
Reply text: 4440
